Origin of values: patent US7435837B2

Target: human 5-HT2C receptor (Homo sapiens, UniProt P28335)
Sequence (P28335 33-458): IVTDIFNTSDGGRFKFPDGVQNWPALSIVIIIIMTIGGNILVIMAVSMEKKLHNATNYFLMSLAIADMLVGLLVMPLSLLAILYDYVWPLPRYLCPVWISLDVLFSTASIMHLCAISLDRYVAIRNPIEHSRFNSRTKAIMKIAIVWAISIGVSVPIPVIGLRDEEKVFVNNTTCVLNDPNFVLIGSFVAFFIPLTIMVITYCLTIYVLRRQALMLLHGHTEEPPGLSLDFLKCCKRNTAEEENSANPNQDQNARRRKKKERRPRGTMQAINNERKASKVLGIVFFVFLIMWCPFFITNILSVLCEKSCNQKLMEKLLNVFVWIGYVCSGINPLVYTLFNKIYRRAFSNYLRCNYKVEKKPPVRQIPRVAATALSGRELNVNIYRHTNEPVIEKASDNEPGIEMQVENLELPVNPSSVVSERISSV
Assay: 5-HT2C receptor-stimulated calcium mobilization (FLIPR) in CHO cells;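 also: Fluo-3-AM fluorescence read on FLIPR every 1 s, agonist added after 10 baseline reads, response taken as peak minus lowest raw fluorescence count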
Format: cell-based
Conditions: CHO, percentage of the response observed with a maximally effective concentration of 5-HT; read-out: 5-HT2C Function Emax (%)
quantity: Emax (%)
Entry rule: numbers only, all in %.

Q. Given Cc1cc2c(c(-c3ccccc3C(F)(F)F)c1)OC(CN)C2 (racemic) [Example 287] , state its recorded Emax.
A. 90

Q. Given CCCNCC1Cc2cc(F)cc(-c3c(Cl)cccc3Cl)c2O1 (racemic) [Example 235] , state its recorded Emax.
A. 50

Q. Given COc1cc2c(c(-c3c(C)cccc3C)c1)OC(CN)C2 (racemic) [Example 374] , state its recorded Emax.
A. 100

Q. Given NCC1Cc2cc(C3CCCC3)cc(-c3ccccc3Cl)c2O1 (racemic) [Example 310] , state its recorded Emax.
A. 90

Q. Given Cc1ccccc1-c1cccc2c1OC(CN)C2 (single isomer, unassigned; (+)) [Example 48] , state its recorded Emax.
A. 100

Q. Given NCC1Cc2cccc(-c3ccc(F)cc3)c2O1 (racemic) [Example 73] , state its recorded Emax.
A. 100

Q. Given CNCC1Cc2cc(F)cc(-c3cc(Cl)ccc3OC)c2O1 (racemic) [Example 458] , state its recorded Emax.
A. 80

Q. Given CNCC1Cc2cc(F)cc(-c3cc(C)ccc3C)c2O1 (racemic) [Example 452] , state its recorded Emax.
A. 80

Q. Given Cc1ccccc1-c1ccc(F)c2c1OC(CN)C2 (racemic) [Example 99] , state its recorded Emax.
A. 60
